Consider the following binders and their measured kon readings.
TGT: HSV-1 glycoprotein D-Fc fusion protein (HSV-1) (UniProt Q69091)
METHOD: SPR Biacore T200, single cycle kinetics, G-Fc captured on anti-human IgG, 1:1 fit, second run
Put down the number, then write its unit next to it.

Please fill in: kon reported for 3-G-41_M13R (VHH, not shown: small tags and cut ends) VHH: QVQLVESGGGLVQPGGSLRLSCAASGFSFSFKNYAMSWVRQAPGKGLEWVSTMSGGGGDIKYADSVKGRFTISRDNAKNTLYLQMNSLKPEDTAVYYCAKGWITTDQFTNTPRGQGTQVTVSS = 3.05e+06 M⁻¹ s⁻¹

Please fill in: kon reported for 3-G-44_M13R (VHH, not shown: small tags and cut ends) VHH: QVQLVESGGGLVQPGGSLRLSCTASGFSFAFKNYAMSWVRQAPGKGLEWVSTMSGGGGDTKYADSVKGRFTISRDNAKNAVYLQMNSLKPEDTAVYYCAKGWITTDQFATAPRGQGTQVTVSS = 6.2e+06 M⁻¹ s⁻¹

Please fill in: kon reported for 3-G-75_M13R (VHH, not shown: small tags and cut ends) VHH: QVKLEESGGGVVQDGGSLRLSCAAIEQFFTTNAMAWFRQAPGKERELVAATDWSGQSTSYADSVKGRFTISRDTAKNVMYLQMNILHTEDTAVYYCARAPGRVLLTSDLESYTIWGQGTQVTVSS = 3.93e+06 M⁻¹ s⁻¹

Please fill in: kon reported for 3-G-77_M13R (VHH, not shown: small tags and cut ends) VHH: QVQLVESGGGLVQPGGSLRLSCSASGFSFAFKNYAMSWVRQAPGKGLEWVSTMSGGGGDTKYADSVKGRFTISRDNNKNTVYLQMNSLKPEDTAVYYCAKGWITNNQFAFAPRGQGTQVTVSS = 5.67e+06 M⁻¹ s⁻¹
